system: CAL-85-1; assay: drug sensitivity score (DSS), CellTiter-Glo (DSS (AUC-based score)); higher = stronger drug effect (viability inhibition or cytotoxicity); extreme values may be limits of the assay; conditions: incubation time: 72 h

Compound | drug sensitivity score
CO[C@@]12[C@H](COC(N)=O)C3=C(C(=O)C(C)=C(N)C3=O)N1C[C@@H]1N[C@@H]12 [Mitomycin C] | 2.91
CC1(COc2ccc3c(c2)ncn3-c2ccc3cccc(N4CCC(N)CC4)c3n2)COC1 [Crenolanib] | 4.49
CC(=O)[C@]1(O)Cc2c(O)c3c(c(O)c2[C@@H](O[C@H]2C[C@H](N)[C@H](O)[C@H](C)O2)C1)C(=O)c1ccccc1C3=O [Idarubicin] | 6.75
CN(C)C(=N)NC(=N)N [Metformin] | 0
CC(C)n1cnc2c(NCCc3ccc(O)cc3)nc(-c3csc4ccccc34)nc21 [StemRegenin 1] | 0

====

tested on: HCC1143; test: drug sensitivity score (DSS), CellTiter-Blue viability (DSS (AUC-based score)); higher = stronger viability inhibition; extreme values may be limits of the assay; settings: incubation time: 72 h
Would you mind labelling by drug sensitivity score? At or over 5 is label 1, under is label 0.

Molecule | Group
CO[C@@]12[C@H](COC(N)=O)C3=C(C(=O)C(C)=C(N)C3=O)N1C[C@@H]1N[C@@H]12 | label 1
CN(Cc1cnc2nc(N)nc(N)c2n1)c1ccc(C(=O)N[C@@H](CCC(=O)O)C(=O)O)cc1 [Methotrexate] | label 1
CO[C@@H]1[C@H](N(C)C(=O)c2ccccc2)C[C@H]2O[C@]1(C)n1c3ccccc3c3c4c(c5c6ccccc6n2c5c31)C(=O)NC4 | label 0
CC1(C)CCC(c2ccc(Cl)cc2)=C(CN2CCN(c3ccc(C(=O)NS(=O)(=O)c4ccc(N[C@H](CCN5CCOCC5)CSc5ccccc5)c(S(=O)(=O)C(F)(F)F)c4)cc3)CC2)C1 | label 0
Cc1cc(Nc2nc(N[C@@H](C)c3ncc(F)cn3)ncc2Cl)[nH]n1 | label 0
CC(O)(CS(=O)(=O)c1ccc(F)cc1)C(=O)Nc1ccc(C#N)c(C(F)(F)F)c1 (stereo not drawn) [Bicalutamide] | label 0
CC(C)C[C@H](NC(=O)[C@@H](COC(C)(C)C)NC(=O)[C@H](Cc1ccc(O)cc1)NC(=O)[C@H](CO)NC(=O)[C@H](Cc1c[nH]c2ccccc12)NC(=O)[C@H](Cc1cnc[nH]1)NC(=O)[C@@H]1CCC(=O)N1)C(=O)N[C@@H](CCCNC(=N)N)C(=O)N1CCC[C@H]1C(=O)NNC(N)=O | label 0

====

system: CAL-51; assay: drug sensitivity score (DSS), CellTox Green (DSS (AUC-based score)); higher = stronger drug effect (viability inhibition or cytotoxicity); extreme values may be limits of the assay; settings: incubation time: 72 h
Documented drug sensitivity score across a set of compounds
Measurement Name: drug sensitivity score

Compound | Readout Number
O=C(CCCCCCC(=O)Nc1ccccc1)NO | 6.5
CC(=O)[C@]1(O)Cc2c(O)c3c(c(O)c2[C@@H](O[C@H]2C[C@H](N)[C@H](O)[C@H](C)O2)C1)C(=O)c1ccccc1C3=O | 9.49
CC(C)C[C@H](NC(=O)[C@@H](COC(C)(C)C)NC(=O)[C@H](Cc1ccc(O)cc1)NC(=O)[C@H](CO)NC(=O)[C@H](Cc1c[nH]c2ccccc12)NC(=O)[C@H](Cc1cnc[nH]1)NC(=O)[C@@H]1CCC(=O)N1)C(=O)N[C@@H](CCCNC(=N)N)C(=O)N1CCC[C@H]1C(=O)NNC(N)=O | 0
C=CCn1c(=O)c2cnc(Nc3ccc(N4CCN(C)CC4)cc3)nc2n1-c1cccc(C(C)(C)O)n1 | 15.7
CN(C)C(=N)NC(=N)N | 8.43
CC(C)(C)c1nc(-c2cccc(NS(=O)(=O)c3c(F)cccc3F)c2F)c(-c2ccnc(N)n2)s1 | 0

====

test system: BT-549; experiment: drug sensitivity score (DSS), CellTiter-Blue viability (DSS (AUC-based score)); higher = stronger viability inhibition; extreme values may be limits of the assay; conditions: incubation time: 72 h
Measurement Name: drug sensitivity score

Compound | Tested Target | Measurement Name | Result
CNC(=O)c1ccccc1Sc1ccc2c(/C=C/c3ccccn3)n[nH]c2c1 | BT-549 | drug sensitivity score | 4.37
CC(C)C[C@H](NC(=O)[C@@H](COC(C)(C)C)NC(=O)[C@H](Cc1ccc(O)cc1)NC(=O)[C@H](CO)NC(=O)[C@H](Cc1c[nH]c2ccccc12)NC(=O)[C@H](Cc1cnc[nH]1)NC(=O)[C@@H]1CCC(=O)N1)C(=O)N[C@@H](CCCNC(=N)N)C(=O)N1CCC[C@H]1C(=O)NNC(N)=O | BT-549 | drug sensitivity score | 0
CC[C@H](CO)Nc1nc(NCc2ccccc2)c2ncn(C(C)C)c2n1 | BT-549 | drug sensitivity score | 2.4
Cn1cc(C2=C(c3cn(C4CCN(Cc5ccccn5)CC4)c4ccccc34)C(=O)NC2=O)c2ccccc21 | BT-549 | drug sensitivity score | 6.55
COc1c2occc2cc2ccc(=O)oc12 | BT-549 | drug sensitivity score | 0
CO[C@@H]1[C@H](N(C)C(=O)c2ccccc2)C[C@H]2O[C@]1(C)n1c3ccccc3c3c4c(c5c6ccccc6n2c5c31)C(=O)NC4 | BT-549 | drug sensitivity score | 9.72

====

tested on: MFM-223; assay: drug sensitivity score (DSS), CellTiter-Glo (DSS (AUC-based score)); higher = stronger drug effect (viability inhibition or cytotoxicity); extreme values may be limits of the assay; details: incubation time: 72 h
Documented drug sensitivity score across a set of compounds
Measurement Name: drug sensitivity score

Compound | Readout Number
Cc1cn(-c2cc(NC(=O)c3ccc(C)c(Nc4nccc(-c5cccnc5)n4)c3)cc(C(F)(F)F)c2)cn1 [Nilotinib] | 0
CCN(CC)CCCC(C)Nc1ccnc2cc(Cl)ccc12 (stereo not given) [Chloroquine] | 9.76
CN(C)C(=N)NC(=N)N [Metformin] | 0
Cc1nc(C(=O)NCC(=O)O)c(O)c2ccc(Oc3ccccc3)cc12 [FG-4592] | 0
C=CCN(/C=C1/C(=O)O[C@H](COC)[C@@]2(C)C1=C(O)C(=O)C1=C2[C@H](OC(C)=O)C[C@]2(C)C(=O)CC[C@@H]12)CC=C [Sonolisib] | 0
CO[C@@H]1[C@H](N(C)C(=O)c2ccccc2)C[C@H]2O[C@]1(C)n1c3ccccc3c3c4c(c5c6ccccc6n2c5c31)C(=O)NC4 [Midostaurin] | 3.44
O=[N+]([O-])c1ccc2c(c1)S(=O)(=O)C=C2 [Stattic] | 14.8
CC1(C)CCC(c2ccc(Cl)cc2)=C(CN2CCN(c3ccc(C(=O)NS(=O)(=O)c4ccc(N[C@H](CCN5CCOCC5)CSc5ccccc5)c(S(=O)(=O)C(F)(F)F)c4)cc3)CC2)C1 [Navitoclax] | 2.94
CCNC(=O)c1noc(-c2cc(C(C)C)c(O)cc2O)c1-c1ccc(CN2CCOCC2)cc1 [NVP-AUY922] | 14.9
Nc1ccn([C@@H]2O[C@H](CO)[C@@H](O)C2(F)F)c(=O)n1 [Gemcitabine] | 0

====

Documented normalised viability across a set of compounds
test system: DU-4475; test: normalised viability (% of control), CellTiter-Blue; higher = more viable cells (about 100 = DMSO control); details: 10 nM; incubation time: 72 h
Measurement Name: normalised viability (%)

Compound | Measurement Name | Readout Number
CC(C)(C)NC(=O)[C@H]1CC[C@H]2[C@@H]3CC[C@H]4NC(=O)C=C[C@]4(C)[C@H]3CC[C@]12C [Finasteride] | normalised viability | 107
CC(C)C[C@H](NC(=O)[C@@H](COC(C)(C)C)NC(=O)[C@H](Cc1ccc(O)cc1)NC(=O)[C@H](CO)NC(=O)[C@H](Cc1c[nH]c2ccccc12)NC(=O)[C@H](Cc1cnc[nH]1)NC(=O)[C@@H]1CCC(=O)N1)C(=O)N[C@@H](CCCNC(=N)N)C(=O)N1CCC[C@H]1C(=O)NNC(N)=O | normalised viability | 96.2
CO[C@@]12[C@H](COC(N)=O)C3=C(C(=O)C(C)=C(N)C3=O)N1C[C@@H]1N[C@@H]12 | normalised viability | 103
CC[C@H](CO)Nc1nc(NCc2ccccc2)c2ncn(C(C)C)c2n1 | normalised viability | 104

====

test system: MDA-MB-436; assay: normalised response (% of control), CellTiter-Glo; higher = more viable cells (100 = DMSO, 0 = benzethonium chloride kill control); conditions: incubation time: 72 h
Documented normalised response across a set of compounds
Measurement Name: normalised response (%)

Compound | Unit Tag | Readout Number
O=C(CCCCCCC(=O)Nc1ccccc1)NO [Vorinostat] (10000 nM) | % | 52.2
CC(=O)[C@]1(O)Cc2c(O)c3c(c(O)c2[C@@H](O[C@H]2C[C@H](N)[C@H](O)[C@H](C)O2)C1)C(=O)c1ccccc1C3=O [Idarubicin] (1000 nM) | % | 20.6
CC(C)(C)NC(=O)[C@H]1CC[C@H]2[C@@H]3CC[C@H]4NC(=O)C=C[C@]4(C)[C@H]3CC[C@]12C [Finasteride] (10000 nM) | % | 108
CCn1c(C(=O)N(C2CC2)C2CC2)cc2c3c(ncn3C)c(Nc3cc(C)n(C)n3)nc21 (10000 nM) | % | 93.6
CC(C)(C)c1nc(-c2cccc(NS(=O)(=O)c3c(F)cccc3F)c2F)c(-c2ccnc(N)n2)s1 [Dabrafenib] (2500 nM) | % | 92.3
CCN(CC)CCCC(C)Nc1ccnc2cc(Cl)ccc12 (stereo unspecified) [Chloroquine] (100000 nM) | % | 1.76
